# melting point per entry
Counter-ions that a name gives are not always drawn.

Use the examples below as a reference point.
Cn1c(C(=O)O)c(Nc2ccncc2)c2c(F)cccc21 (as salt: trifluoroacetate) [Example 31]: 197 to 199 °C
COc1ccc2[nH]c(C(=O)O)c(Nc3ccncc3)c2c1 (as salt: trifluoroacetate): 211 to 213 °C
O=C(O)c1[nH]c2cccc(F)c2c1Nc1ccncc1 (as salt: trifluoroacetate): 231 to 234 °C (dec.)
CCOC(=O)c1c(Nc2ccncc2)c2ccc(Cl)cc2n1CC(=O)N(CC)CC [Example 34]: 212 to 214 °C
CN(C(=O)c1cccc(F)c1)c1c(C(=O)O)[nH]c2cc(Cl)cc(Cl)c12 [Example 88]: 270 to 280 °C
O=C(Nc1c(C(=O)O)[nH]c2cc(Cl)cc(Cl)c12)c1ccccc1Cc1ccccc1 [Example 87]: 234 to 235 °C

// query melting point value for entry COc1ccc2[nH]c(C(=O)OC(C)(C)C)c(Nc3ccncc3)c2c1 [Example 21]
217 to 219 °C

Which melting point is listed for CCOC(=O)c1c(Nc2ccncc2)c2ccc(Cl)cc2n1C [Example 27] ?
154 to 155 °C

// returns reported melting point for input "Cn1c(C(=O)O)c(Nc2ccncc2)c2ccccc21.O=C(O)/C=C\C(=O)O"
192 to 194 °C (dec.)

Suppose we examine the compound CN(C(=O)c1ccc(Cl)cc1)c1c(C(=O)O)[nH]c2cc(Cl)cc(Cl)c12 [Example 80] ; what melting point value has been reported?
279 to 283 °C

Reported melting point for CC(C)(C)OC(=O)c1[nH]c2cccc(F)c2c1Nc1ccncc1 [Example 17] : what is it?
210 to 212 °C

Any idea what melting point was measured for NC(=O)c1[nH]c2ccccc2c1Nc1ccncc1 [Example 128] ?
230 °C (dec.)
